Assay: Cytotoxicity colorimetric assay, NIH/3T3
Type: cell-based, mouse
Details: mouse, NIH/3T3 cells, one hour in serum-free media
Field: EC50 at 1 h. Provide a value for each of the molecules that follow.
Answers are plain numbers, in mg/L.

Each molecule below has a reported value. Please supply its EC50 at 1 h.
1. COc1ccc(NC(=O)[C@H](CCCNC(=N)N)NC(=O)c2cc(NC(=O)[C@H](CCCNC(=N)N)NC(=O)c3cc(NC(=O)[C@H](CCCNC(=N)N)NC(=O)c4cc(NC(=O)[C@@H](N)CCCNC(=N)N)ccc4OC)ccc3OC)ccc2OC)cc1C(=O)N[C@@H](Cc1c[nH]c2ccccc12)C(=O)O
2. COc1cc(OC)c(C(=O)N[C@H]2CC[C@@H](NC(=O)c3ccc(OCCCCCN)cc3OCCCCCN)CC2)cc1C(=O)N[C@H]1CC[C@@H](NC(=O)c2ccc(OCCCCCN)cc2OCCCCCN)CC1

1: 1000; 2: 100

# lookup: EC50 at 1 h of COc1cc(OC)c(C(=O)N[C@H]2CC[C@@H](NC(=O)c3ccc(OCCCCCNC(=N)N)cc3OCCCCCNC(=N)N)CC2)cc1C(=O)N[C@H]1CC[C@@H](NC(=O)c2ccc(OCCCCCNC(=N)N)cc2OCCCCCNC(=N)N)CC1
43.2
